target: Cytochrome P450 2C19 (Homo sapiens) (UniProt P33261); experiment: Cytochrome panel assay with activity outcomes; details: recombinant CYP, pro-luciferin dealkylation, luminescence, p450-cyp2c19; series mostly up to 57.1 µM
Sequence (P33261 whole entry, looked up): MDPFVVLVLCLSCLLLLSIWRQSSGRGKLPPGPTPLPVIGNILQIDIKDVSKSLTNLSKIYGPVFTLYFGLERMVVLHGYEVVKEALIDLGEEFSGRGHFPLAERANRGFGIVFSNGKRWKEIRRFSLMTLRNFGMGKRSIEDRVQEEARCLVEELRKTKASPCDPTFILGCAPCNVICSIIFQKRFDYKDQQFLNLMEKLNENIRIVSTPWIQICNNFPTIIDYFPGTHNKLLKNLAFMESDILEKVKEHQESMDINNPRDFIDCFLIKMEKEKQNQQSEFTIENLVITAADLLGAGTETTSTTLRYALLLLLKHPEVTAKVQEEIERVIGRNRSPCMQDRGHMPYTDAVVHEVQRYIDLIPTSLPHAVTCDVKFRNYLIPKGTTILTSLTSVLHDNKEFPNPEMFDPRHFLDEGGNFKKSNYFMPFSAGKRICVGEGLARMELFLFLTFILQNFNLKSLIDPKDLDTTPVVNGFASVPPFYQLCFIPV
Out of some 16,000 compounds screened, about 5,800 (36%) were called active. Roughly 23% stayed inconclusive and do not appear here. Calls follow the shape of the dose curve; as a rule, active = well fitted curve in the direction sought with a large enough effect; inconclusive = small, poorly fitted or top-dose-only effect, or effect the other way; inactive = no such curve, though single readings can be large or run the other way. The list shows a part of the results.
Would you mind answering with one of these outcomes? active, inactive

Reference set (3 entries):
[
  {
    "Molecule": "O=C1C2Sc3[nH]c(=O)sc3C(c3ccccc3)C2C(=O)N1c1ccccc1 (centres undefined)",
    "Category label": "active"
  },
  {
    "Molecule": "Cc1cc2ccccc2nc1SCC(=O)Nc1nc(-c2ccccc2)cs1",
    "Category label": "inactive"
  },
  {
    "Molecule": "CN(C)CCOC(=O)[C@@H](c1ccccc1)C1(O)CCCC1",
    "Category label": "inactive"
  }
]

Any idea what this test logged for N#Cc1ccc(CN2CCC3(CC2)CCN(C(=O)c2cc(C(F)(F)F)cc(C(F)(F)F)c2)CC3)cc1 ?
inactive

* * *

molecular target: Cytochrome P450 2C19 (Homo sapiens) (UniProt P33261); test: Cytochrome panel assay with activity outcomes; settings: recombinant CYP, pro-luciferin dealkylation, luminescence, p450-cyp2c19; series mostly up to 57.1 µM; as to activity, negative = inhibition: % is scaled to controls: 0 for no effect and ±100 for the full control effect
In all, about 16,000 compounds went through this assay and about 5,800 (36%) were called active. Roughly 23% stayed inconclusive and do not appear here. Some of the results follow.
Each item that follows carries a reported activity, negative = inhibition.

Worked examples follow.
[
  {
    "Molecule": "COC(=O)[C@@H]1CC[C@H](C)[C@@H](c2ccc(C)cc2)N1C(=O)c1ccc(/C=N\\O[C@@H]2O[C@H](COC(C)=O)[C@H](OC(C)=O)[C@H](OC(C)=O)[C@H]2OC(C)=O)cc1",
    "activity, negative = inhibition": "-28.1% [at 11.4 µM] (inactive)"
  },
  {
    "Molecule": "COC(=O)[C@@H]1CC[C@H](C)[C@@H](c2ccc(C)cc2)N1C(=O)c1ccc(/C=N\\OCC[C@@H]2C=C[C@H](OC(C)=O)[C@H](COC(C)=O)O2)cc1",
    "activity, negative = inhibition": "-15.5% [at 11.4 µM] (inactive)"
  },
  {
    "Molecule": "O=c1[nH]c(SCc2ccccc2[N+](=O)[O-])nc2nc[nH]c12",
    "activity, negative = inhibition": "23.8% [at 11.4 µM] (inactive)"
  },
  {
    "Molecule": "Nc1nc(N)c2[nH]cnc2n1 (tested in a mixture with another compound)",
    "activity, negative = inhibition": "6.99% [at 11.4 µM] (inactive)"
  }
]

Please find the next molecule below.
For CN1CCN(CCCBr)CC1 , what is its reported activity, negative = inhibition?
39.1% [at 11.4 µM] (inactive)

* * *

biological target: Cytochrome P450 2C19 (Homo sapiens); assay: Cytochrome panel assay with activity outcomes; settings: recombinant CYP, pro-luciferin dealkylation, luminescence, p450-cyp2c19; series mostly up to 57.1 µM
Among all 16,000 compounds or so, about 5,800 (36%) were called active. About 23% were inconclusive and are not listed. Some of the results follow.
Measured parameter: AC50

Worked examples follow.
[
  {
    "Molecule": "O=C(c1cnccn1)N1CCC2(CC1)CN(C(c1ccccc1)c1ccccc1)C2",
    "AC50": "inactive"
  },
  {
    "Molecule": "Nc1[nH]nc2nc3ccccc3nc12",
    "AC50": "0.631 µM (active)"
  },
  {
    "Molecule": "c1ccc2c(N3CCNCC3)nc(-c3ccc4c(c3)OCO4)nc2c1",
    "AC50": "inactive"
  },
  {
    "Molecule": "Nc1ccc(Oc2ccc3nc(-c4ccccc4)c(-c4ccc([N+](=O)[O-])cc4)nc3c2)cc1",
    "AC50": "3.55 µM (active)"
  },
  {
    "Molecule": "CCOc1ccc(C2=[N+]([O-])C(C)(C)N(O)C2(C)C)cc1",
    "AC50": "inactive"
  },
  {
    "Molecule": "CN1CCN(c2nc(-c3ccoc3)nc3ccccc23)CC1",
    "AC50": "inactive"
  },
  {
    "Molecule": "CCOC(=O)c1cnc(SCCc2ccccc2)nc1N",
    "AC50": "7.94 µM (active)"
  },
  {
    "Molecule": "c1ccc2c(-n3ccnc3)nc(-c3ccoc3)nc2c1",
    "AC50": "20 µM (active)"
  }
]

For CCOc1ccc(C(Nc2ccc(C)cc2)P2(=O)OCC(C)(C)CO2)cc1 (stereo unspecified) , what is its reported AC50?
25.1 µM (active)

For c1ccc2c(N3CCOCC3)nc(-c3ccoc3)nc2c1 , what is its reported AC50?
inactive

For CSCC[C@H](NC(=O)c1nn(C)c(=O)c2ccccc12)c1nc2ccccc2[nH]1 , what is its reported AC50?
14.1 µM (active)

* * *

target: Cytochrome P450 2C19 (Homo sapiens) (UniProt P33261); assay: Cytochrome panel assay with activity outcomes; settings: recombinant CYP, pro-luciferin dealkylation, luminescence, p450-cyp2c19; series mostly up to 57.1 µM; as to activity, negative = inhibition: % is scaled to controls: 0 for no effect and ±100 for the full control effect
In all, about 16,000 compounds went through this assay and about 5,800 (36%) were called active. Inconclusive results (about 23%) are left out. The list shows a part of the results.
Each item that follows carries a reported activity, negative = inhibition.

For CCOC(=O)N/N=C1/C[C@@H](O)[C@@H](O)[C@@H]2[C@@H]3C(=O)N(Cc4ccccc4)C(=O)[C@H]3CC[C@@H]12 , what is its reported activity, negative = inhibition?
11.9% [at 11.4 µM] (inactive)

* * *

target: Cytochrome P450 2C19 (Homo sapiens) (UniProt P33261); assay: Cytochrome panel assay with activity outcomes; details: recombinant CYP, pro-luciferin dealkylation, luminescence, p450-cyp2c19; series mostly up to 57.1 µM
Hit rate of the full screen: of about 16,000 compounds, about 5,800 (36%) were called active. About 23% were inconclusive and are not listed. Calls follow the shape of the dose curve; as a rule, active = well fitted curve in the direction sought with a large enough effect; inconclusive = small, poorly fitted or top-dose-only effect, or effect the other way; inactive = no such curve, though single readings can be large or run the other way. The list shows a part of the results.
Would you mind answering with one of these outcomes? true (1) (active), false (0) (inactive)

[
  {
    "Molecule": "Cc1cc2nc(CCN(C(=S)NCC(C)C)C3CCCC3)[nH]c2cc1C",
    "System": "Cytochrome P450 2C19 (Homo sapiens) (UniProt P33261)",
    "Category label": "true (1)"
  },
  {
    "Molecule": "O=C(c1ccco1)N1CCC2(CC1)CCN(C(c1ccccc1)c1ccccc1)CC2",
    "System": "Cytochrome P450 2C19 (Homo sapiens) (UniProt P33261)",
    "Category label": "false (0)"
  },
  {
    "Molecule": "Cc1ccccc1OCC(=O)NC(=S)Nc1ccc(N2CCOCC2)c(Cl)c1",
    "System": "Cytochrome P450 2C19 (Homo sapiens) (UniProt P33261)",
    "Category label": "false (0)"
  }
]

Any idea what this test logged for Cc1ccc(-c2nn(-c3ccccc3)cc2CSC(=N)N)cc1 ?
true (1)

Any idea what this test logged for Cc1nnsc1SC(C)C(=O)O (stereo unspecified) ?
false (0)

Any idea what this test logged for CC(C)CCn1nnnc1C(c1ccc(F)cc1)N1CCN(C(=O)c2ccco2)CC1 (stereo unspecified) ?
true (1)

* * *

target: Cytochrome P450 2C19 (Homo sapiens) (UniProt P33261); assay: Cytochrome panel assay with activity outcomes; conditions: recombinant CYP, pro-luciferin dealkylation, luminescence, p450-cyp2c19; series mostly up to 57.1 µM
The whole screen tested about 16,000 compounds, of which about 5,800 (36%) were called active. About 23% were inconclusive and are not listed. Calls follow the shape of the dose curve; as a rule, active = well fitted curve in the direction sought with a large enough effect; inconclusive = small, poorly fitted or top-dose-only effect, or effect the other way; inactive = no such curve, though single readings can be large or run the other way. The list shows a part of the results.
Would you mind answering with one of these outcomes? t for active, f for inactive

Reference set (5 entries):
[
  {
    "Compound": "CN1CCN(c2ncnc3ccc(-c4cccc(NS(C)(=O)=O)c4)cc23)CC1",
    "Category label": "f"
  },
  {
    "Compound": "CN(Cc1ccco1)c1ncnc2ccc(-c3cccc(NS(C)(=O)=O)c3)cc12",
    "Category label": "t"
  },
  {
    "Compound": "c1ccc(-c2nnn(CCN3CCCCC3)n2)cc1",
    "Category label": "t"
  },
  {
    "Compound": "COc1cccc(-c2ccc3ncnc(N(C)Cc4ccco4)c3c2)c1",
    "Category label": "t"
  },
  {
    "Compound": "CNC(=S)N1N=C(c2ccc(OC)cc2)CC1c1ccc(N(C)C)cc1 (stereo unspecified)",
    "Category label": "t"
  }
]

Any idea what this test logged for CC(C)c1ccc(-c2nnn(CCC(=O)O)n2)cc1 ?
f

* * *

target: Cytochrome P450 2C19 (Homo sapiens); experiment: Cytochrome panel assay with activity outcomes; details: recombinant CYP, pro-luciferin dealkylation, luminescence, p450-cyp2c19; series mostly up to 57.1 µM
Hit rate of the full screen: of about 16,000 compounds, about 5,800 (36%) were called active. Another 23% or so got no clear call; they are omitted. Some of the results follow.
Measured parameter: AC50

Worked examples follow.
[
  {
    "Compound": "CCN(CC)c1ccc2c(c1)OC(N)=C(C#N)C2c1cccnc1 (configuration not stated)",
    "AC50": "0.891 µM (active)"
  },
  {
    "Compound": "Cc1noc(C)c1-c1ccc2ncnc(NCc3cccnc3)c2c1",
    "AC50": "0.02 µM (active)"
  },
  {
    "Compound": "Cc1nc(NC(=O)c2ccco2)sc1-c1csc(Nc2ccc(Cl)cc2Cl)n1",
    "AC50": "0.355 µM (active)"
  },
  {
    "Compound": "Oc1cc2c(cc1O)CN(C(=S)NCCc1ccc(Cl)cc1)CCC2",
    "AC50": "0.316 µM (active)"
  },
  {
    "Compound": "CC1(C)SC(=S)N(NC(=O)Nc2ccccc2)C1N(O)C(=O)Nc1ccccc1 (configuration not stated)",
    "AC50": "14.1 µM (active)"
  },
  {
    "Compound": "N[C@H](CCC(=O)NCC(=O)O)C(=O)O",
    "AC50": "inactive"
  }
]

For O=C(CCCCn1c(=S)[nH]c2ccsc2c1=O)NCc1ccco1 , what is its reported AC50?
14.1 µM (active)

For C/C(=N\Nc1nc(N)cc(Cl)n1)c1cccc([N+](=O)[O-])c1 , what is its reported AC50?
inactive

For C=CCn1c(SCC(=O)Nc2c(C)n(C)n(-c3ccccc3)c2=O)nc2sc(C)c(-c3ccccc3)c2c1=O , what is its reported AC50?
15.8 µM (active)

For Cc1c(NC(=O)Cn2ccc([N+](=O)[O-])n2)c(=O)n(-c2ccccc2)n1C , what is its reported AC50?
inactive

For O=C(CCn1c(=O)[nH]c2ccsc2c1=O)Nc1ccc(F)c(F)c1 , what is its reported AC50?
inactive

Origin of measurements: PubChem BioAssay AID1851
